Values of IC50 reported for Glycogen synthase kinase-3 alpha (Homo sapiens, UniProt P49840) appear below.

Recorded results for 5 compounds are shown here.
{"COMPOUND": "CC[C@]1(c2cccc(-c3c(C)nnn3C)c2)C2=CN=NC2NC2=C1C(=O)CC(C)(C)C2 (stereo partly drawn) [US20250313563, Compound 946099]", "MEASURED VALUE": "< 100 nM"}
{"COMPOUND": "CC1(C)CC(=O)C2=C(C1)NC1=C(CN=N1)C21CCN(S(=O)(=O)C2CCOCC2)CC1 [US20250313563, Compound 913127]", "MEASURED VALUE": "< 100 nM"}
{"COMPOUND": "CC1(C)CC(=O)C2=C(C1)NC1=C(CN=N1)C21CCN(S(=O)(=O)c2cccc(C#N)c2)CC1 [US20250313563, Compound 947254]", "MEASURED VALUE": "< 100 nM"}
{"COMPOUND": "CCC1(c2cc(N3CCOCC3)ccc2F)C2=CN=NC2NC2=C1C(=O)CC(C)(C)C2 (stereo not drawn) [US20250313563, Compound 909203]", "MEASURED VALUE": "100 to 1000 nM"}
{"COMPOUND": "CCC1(c2cccc(S(=O)(=O)C(C)C)c2)C2=CN=NC2NC2=C1C(=O)NC(C)(C)C2 (stereo not drawn) [US20250313563, Compound 945464]", "MEASURED VALUE": "< 100 nM"}

Query block: What IC50 appears in the records for this compound with Glycogen synthase kinase-3 alpha (Homo sapiens, UniProt P49840)? CCC1(c2cccc(C(F)(F)F)c2)C2=CN=NC2NC2=C1C(=O)N(c1cscn1)CC2 (stereo not drawn) [US20250313563, Compound 950777]
Sequence (P49840 whole entry): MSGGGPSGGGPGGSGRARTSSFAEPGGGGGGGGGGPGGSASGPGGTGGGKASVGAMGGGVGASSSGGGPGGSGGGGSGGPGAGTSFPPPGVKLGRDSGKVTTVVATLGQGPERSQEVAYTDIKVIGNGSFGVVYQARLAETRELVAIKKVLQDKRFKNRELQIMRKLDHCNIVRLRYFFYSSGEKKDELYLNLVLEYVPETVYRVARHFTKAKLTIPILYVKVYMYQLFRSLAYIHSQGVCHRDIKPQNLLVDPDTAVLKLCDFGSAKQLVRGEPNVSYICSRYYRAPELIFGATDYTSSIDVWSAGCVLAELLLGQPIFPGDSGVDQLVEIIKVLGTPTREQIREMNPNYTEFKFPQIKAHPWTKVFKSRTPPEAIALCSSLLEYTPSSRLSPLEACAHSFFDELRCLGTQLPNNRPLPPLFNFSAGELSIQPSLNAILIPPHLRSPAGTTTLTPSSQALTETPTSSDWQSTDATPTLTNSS
Result block: < 100 nM

Query block: Please tell me: IC50 of CC[C@]1(c2cccc(N3CCOc4ccccc43)c2)C2=CN=NC2NC2=C1C(=O)CC(C)(C)C2 (stereo partly drawn) [US20250313563, Compound 932635] , system Glycogen synthase kinase-3 alpha (Homo sapiens, UniProt P49840)?
Result block: > 5000 nM

Query block: Param readout = IC50; param system = Glycogen synthase kinase-3 alpha (Homo sapiens, UniProt P49840); param query = CC1(C)CC(=O)C2=C(C1)NC1=C(CN=N1)C21CN(S(=O)(=O)c2ccc(F)cc2)C1 [US20250313563, Compound 917144] ; response: value
Result block: < 100 nM

Query block: Report IC50 for CCC1(c2cccc(-c3ccncc3C)c2)C2=C(CC(C)(C)CC2=O)NC2N=NC(C(F)(F)F)=C21 (stereo not drawn) [US20250313563, Compound 945527] tested on Glycogen synthase kinase-3 alpha (Homo sapiens, UniProt P49840).
Result block: < 100 nM

Query block: Please state recorded IC50 (tested on Glycogen synthase kinase-3 alpha (Homo sapiens, UniProt P49840)) of CC[C@@]1(c2cccc(-c3cc(OC)ncc3F)c2)C2=CN=NC2NC2=C1C(=O)CC(C)(C)C2 (stereo partly drawn) [US20250313563, Compound 944032]
Result block: 100 to 1000 nM

Reference for the values: BindingDB's records for patent US20250313563
